# System: human PKK mRNA
# assayName: Antisense inhibition of human PKK mRNA in HepaRG cells, 1,000 nM, MOE/deoxy/cEt oligonucleotides (Example 3)
# Format: cell-based
# recordedConditions: Table 22 experiment; HepaRG cells, electroporation with 1,000 nM antisense oligonucleotide, approx. 24 hours; PKK mRNA by RT-PCR (RTS3454), relative to untreated control cells
Strand notation (5' to 3'): a small letter for the sugar, then the base; units joined by * are phosphorothioate-linked, units joined directly phosphodiester-linked; [ ] holds rarer units or linkages, { } end groups; capitals alone tell only the bases. e = 2'-O-(2-methoxyethyl) (MOE); k = constrained ethyl (cEt); [5mC] = 5-methylcytosine; d = 2'-deoxy (DNA)
recordedMetric: % inhibition

Example cases with answers are listed next.
substance	testTarget	% inhibition
547855 (antisense eT*eA*kT*d[5mC]*dA*dA*d[5mC]*dT*d[5mC]*d[5mC]*dT*dT*dT*kA*kT*eA) [compound 547855]	human PKK mRNA	38%
547903 (e[5mC]*eT*k[5mC]*dA*dG*d[5mC]*dA*d[5mC]*d[5mC]*dT*dT*dT*dA*kT*kA*eG; antisense) [compound 547903]	human PKK mRNA	6%

// below: % inhibition requested for another substance
Field request: % inhibition | item: 547863 (antisense eT*eG*kA*d[5mC]*dT*d[5mC]*d[5mC]*dT*d[5mC]*dT*d[5mC]*dA*dT*kA*kT*e[5mC]) [compound 547863] 77%
